assay: Cytotoxicity against human Ava5 cells after 3 days by neutral red dye assay; type: cell-based
# reported CC50 at 72 h; entries follow
readout label: CC50 at 72 h (µM)

• O=C(Nc1ccc([N+](=O)[O-])cc1Cl)c1cc(Cl)ccc1O [NICLOSAMIDE] = 10
• O=C(Nc1nc(-c2ccccc2)c(Br)s1)c1ccccc1O = 16
• CC(=O)Oc1c(C)cccc1C(=O)Nc1ncc(Cl)s1 = 12
• CC(=O)Oc1ccccc1C(=O)Nc1ncc(Br)s1 = 12
• O=C(Nc1ncc([N+](=O)[O-])s1)c1ccccc1O [TIZOXANIDE] = 15
• CC(=O)Nc1cnc(NC(=O)c2ccccc2O)s1 = 11
• CCOC(=O)c1cnc(NC(=O)c2ccccc2O)s1 = 14
• COC(=O)c1ccc(NC(=O)c2ccccc2OC(C)=O)cc1 = 4.4
• CC(=O)Oc1ccc(C)cc1C(=O)Nc1ncc(Br)s1 = 10
• O=C(Nc1cccc(F)c1)c1ccccc1O = 3.4
• O=C(Nc1ncc(Cl)s1)c1ccccc1O = 15
